# EXPERIMENTAL SYSTEM: huCD28 (human, UniProt P10747 19-152, limits assumed)
# EXPERIMENT: SPR, OAA format
Label criterion met when Fold-change from WT is at or above 0.7 fold; otherwise label criterion not met.

Please indicate if the recorded Fold-change from WT for v37851 (antibody, V domains shown, OAA format as v34891; also called huTN228 N1066A (VH) OAA) VH: QVQLQESGPGLVKPSETLSLTCAVSGFSLTSYGVHWIRQPPGKGLEWLGVIWPGGGTAFNSALMSRLTISEDTSKNQVSLKLSSVTAADTAVYYCARDRAYGNYLYAMDYWGQGTLVTVSS VL: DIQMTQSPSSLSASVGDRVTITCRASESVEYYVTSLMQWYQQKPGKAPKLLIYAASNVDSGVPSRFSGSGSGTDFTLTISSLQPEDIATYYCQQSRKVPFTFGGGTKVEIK meets or exceeds 0.7 fold.
criterion met

Please indicate if the recorded Fold-change from WT for v37897 (antibody, V domains shown, OAA format as v34891; also called huTN228 V1087F (VH) OAA) VH: QVQLQESGPGLVKPSETLSLTCAVSGFSLTSYGVHWIRQPPGKGLEWLGVIWPGGGTNFNSALMSRLTISEDTSKNQFSLKLSSVTAADTAVYYCARDRAYGNYLYAMDYWGQGTLVTVSS VL: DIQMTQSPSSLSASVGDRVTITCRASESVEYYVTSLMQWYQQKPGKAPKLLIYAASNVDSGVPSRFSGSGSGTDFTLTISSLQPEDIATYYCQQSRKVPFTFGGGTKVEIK meets or exceeds 0.7 fold.
criterion met

Please indicate if the recorded Fold-change from WT for v37888 (antibody, V domains shown, OAA format as v34891; also called huTN228 N1066Q (VL) OAA) VH: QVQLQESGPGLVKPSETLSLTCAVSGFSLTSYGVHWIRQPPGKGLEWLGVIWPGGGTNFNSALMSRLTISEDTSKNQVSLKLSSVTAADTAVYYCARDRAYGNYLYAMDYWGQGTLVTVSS VL: DIQMTQSPSSLSASVGDRVTITCRASESVEYYVTSLMQWYQQKPGKAPKLLIYAASQVDSGVPSRFSGSGSGTDFTLTISSLQPEDIATYYCQQSRKVPFTFGGGTKVEIK meets or exceeds 0.7 fold.
criterion not met

Please indicate if the recorded Fold-change from WT for v37858 (antibody, V domains shown, OAA format as v34891; also called huTN228 L1112AA (VH) OAA) VH: QVQLQESGPGLVKPSETLSLTCAVSGFSLTSYGVHWIRQPPGKGLEWLGVIWPGGGTNFNSALMSRLTISEDTSKNQVSLKLSSVTAADTAVYYCARDRAYGNYAYAMDYWGQGTLVTVSS VL: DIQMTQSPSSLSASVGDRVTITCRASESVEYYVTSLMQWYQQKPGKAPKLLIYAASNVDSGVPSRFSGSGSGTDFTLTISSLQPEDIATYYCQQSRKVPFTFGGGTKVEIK meets or exceeds 0.7 fold.
criterion met

Please indicate if the recorded Fold-change from WT for v37890 (antibody, V domains shown, OAA format as v34891; also called huTN228 A1024T (VH) OAA) VH: QVQLQESGPGLVKPSETLSLTCTVSGFSLTSYGVHWIRQPPGKGLEWLGVIWPGGGTNFNSALMSRLTISEDTSKNQVSLKLSSVTAADTAVYYCARDRAYGNYLYAMDYWGQGTLVTVSS VL: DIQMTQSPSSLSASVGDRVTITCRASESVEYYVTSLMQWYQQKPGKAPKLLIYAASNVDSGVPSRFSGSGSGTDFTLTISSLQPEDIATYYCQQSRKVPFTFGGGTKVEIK meets or exceeds 0.7 fold.
criterion not met
